B1: OR4K15 (parent)
chain: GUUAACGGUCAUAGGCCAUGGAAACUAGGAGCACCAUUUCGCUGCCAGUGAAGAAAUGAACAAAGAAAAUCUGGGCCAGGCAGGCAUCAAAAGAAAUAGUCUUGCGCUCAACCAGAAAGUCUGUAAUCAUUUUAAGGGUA

Variants of: B1
Experiment: self-cleavage, relative activity (ratio to wild type); higher = more cleavage; in vitro, sequencing; the parent is a self-cleaving ribozyme
# self-cleavage >= 0.8 gives 1, anything below gives 0

1. U19C U120C; 0
2. A82U A95C; 0
3. C35U A86G; 0
4. A13G U131C; 1
5. A67G A82C; 0
6. U43C A126G; 0
7. A98G U120C; 0
8. A36G A118C; 1
9. A86G U103A; 1
10. U124A U127C; 0
11. U19C A62G; 1
12. G15C U49C; 1
13. G75C A110G; 0
14. C121A U132A; 1
15. A68C U124C; 1
16. A24C A98G; 0
17. A95G A96C; 0
18. C34U A117G; 1
19. C32U C121U; 1
20. U26C G84A; 1
21. A114U A134G; 0
